# assay details: Cytotoxicity against human HepG2 cells after 24 hrs in presence of 10% FBS by resazurin dye based assay
# Type: cell-based
test readout: CC50 at 24 h (nM)
Provide the reading as a plain figure in nM.

Query CC50 at 24 h for `FC(F)(F)Oc1cccc2c1-c1ccccc1[I+]2`
251

Query CC50 at 24 h for `Cc1ccc(Cl)c2c1[I+]c1ccccc1-2`
349

Query CC50 at 24 h for `FC(F)(F)c1cccc2c1-c1ccccc1[I+]2`
94.7

Query CC50 at 24 h for `Fc1cccc2c1-c1cccc(Cl)c1[I+]2`
386

Query CC50 at 24 h for `Fc1cccc2c1-c1c(F)cccc1[I+]2`
161

Query CC50 at 24 h for `Fc1cccc2c1-c1c(Cl)cccc1[I+]2`
833

Query CC50 at 24 h for `Cc1cccc2c1-c1cccc(Cl)c1[I+]2`
486

====

# assay details: Selectivity index, ratio of CC50 for human HepG2 cells in presence of 1% FBS to MIC for Acinetobacter baumannii ATCC 19606
# Assay type: toxicity
# condition details: read-out: Selectivity Index
test readout: selectivity ratio
Just the number.

Query selectivity ratio for `Cc1cccc2c1-c1ccccc1[I+]2`
1.2

Query selectivity ratio for `c1ccc2c(c1)[I+]c1c-2ccc2ccccc12`
0.17

Query selectivity ratio for `Cc1ccc2c(c1)[I+]c1ccccc1-2.O=S(=O)([O-])C(F)(F)F`
0.41

Query selectivity ratio for `N#Cc1ccc2c(c1)[I+]c1ccccc1-2`
0.19

Query selectivity ratio for `Fc1ccc2c(c1)[I+]c1ccccc1-2`
2.6

Query selectivity ratio for `Fc1cccc2c1-c1ccccc1[I+]2`
8.2

Query selectivity ratio for `Clc1ccc2c(c1)[I+]c1ccccc1-2`
0.51

====

Would you mind telling me the reported log10 MIC of each entry?
# Test system: Pseudomonas aeruginosa
# assay details: Antibacterial activity against Pseudomonas aeruginosa ATCC 27853 after 18 hrs by broth microdilution method
# Assay type: functional
# condition details: ATCC 27853, 18 h
Please be aware that the numbers have been log10-transformed from MIC in µM.

Query log10 MIC for `Fc1ccc2c(c1)-c1ccccc1[I+]2`
1.26

Query log10 MIC for `N#Cc1ccc2c(c1)-c1ccccc1[I+]2`
1.85

Query log10 MIC for `Fc1cccc2c1-c1ccccc1[I+]2`
0.34

Query log10 MIC for `c1ccc2c(c1)[I+]c1c-2ccc2ccccc12`
0.92

Query log10 MIC for `c1ccc2c(c1)[I+]c1ccccc1-2`
1.88

Query log10 MIC for `Cc1cccc2c1-c1ccccc1[I+]2`
1.26

Query log10 MIC for `Cc1ccc2c(c1)[I+]c1ccccc1-2.O=S(=O)([O-])C(F)(F)F`
1.86

Query log10 MIC for `Fc1ccc2c(c1)[I+]c1ccccc1-2`
0.95

Query log10 MIC for `N#Cc1ccc2c(c1)[I+]c1ccccc1-2`
1.54

Query log10 MIC for `Clc1ccc2c(c1)[I+]c1ccccc1-2`
0.94

Query log10 MIC for `Clc1ccc2c(c1)-c1ccccc1[I+]2`
0.94

====

# assay details: Selectivity index, ratio of CC50 for human HepG2 cells in presence of 1% FBS to MIC for Acinetobacter baumannii ATCC 17978 col10
# Type: toxicity
# condition details: read-out: Selectivity Index
test readout: selectivity ratio
Just the number.

Query selectivity ratio for `N#Cc1ccc2c(c1)[I+]c1ccccc1-2`
1.5

Query selectivity ratio for `c1ccc2c(c1)[I+]c1c-2ccc2ccccc12`
1.4

Query selectivity ratio for `Clc1ccc2c(c1)-c1ccccc1[I+]2`
30

Query selectivity ratio for `N#Cc1ccc2c(c1)-c1ccccc1[I+]2`
10

Query selectivity ratio for `Fc1ccc2c(c1)-c1ccccc1[I+]2`
2

Query selectivity ratio for `Fc1ccc2c(c1)[I+]c1ccccc1-2`
11

Query selectivity ratio for `COc1ccc2c(c1)-c1ccccc1[I+]2`
4.6

Query selectivity ratio for `COc1ccc2c(c1)[I+]c1ccccc1-2`
3.1

Query selectivity ratio for `c1ccc2c(c1)[I+]c1ccccc1-2`
50

Query selectivity ratio for `COc1cccc2c1-c1ccccc1[I+]2`
1.1

Query selectivity ratio for `Cc1ccc2c(c1)[I+]c1ccccc1-2.O=S(=O)([O-])C(F)(F)F`
3.2

Query selectivity ratio for `Cc1cccc2c1-c1ccccc1[I+]2`
4.6

Query selectivity ratio for `Cc1ccc2c(c1)-c1ccccc1[I+]2`
33

====

# assay details: Selectivity index, ratio of CC50 for human HepG2 cells in presence of 1% FBS to MIC for Acinetobacter baumannii isolate 07AC-336
# Type: toxicity
# condition details: read-out: Selectivity Index
test readout: selectivity ratio
Just the number.

Query selectivity ratio for `COc1ccc2c(c1)-c1ccccc1[I+]2`
0.29

Query selectivity ratio for `Fc1ccc2c(c1)[I+]c1ccccc1-2`
0.66

Query selectivity ratio for `Clc1ccc2c(c1)[I+]c1ccccc1-2`
0.51

Query selectivity ratio for `Fc1cccc2c1-c1ccccc1[I+]2`
4.1

Query selectivity ratio for `Cc1cccc2c1-c1ccccc1[I+]2`
1.2

Query selectivity ratio for `Cc1ccc2c(c1)-c1ccccc1[I+]2`
2.2

Query selectivity ratio for `N#Cc1ccc2c(c1)-c1ccccc1[I+]2`
0.32

Query selectivity ratio for `c1ccc2c(c1)[I+]c1ccccc1-2`
1.6

Query selectivity ratio for `c1ccc2c(c1)[I+]c1c-2ccc2ccccc12`
0.09

Query selectivity ratio for `Clc1ccc2c(c1)-c1ccccc1[I+]2`
1.9

Query selectivity ratio for `Fc1ccc2c(c1)-c1ccccc1[I+]2`
1.3

Query selectivity ratio for `Cc1ccc2c(c1)[I+]c1ccccc1-2.O=S(=O)([O-])C(F)(F)F`
0.21

Query selectivity ratio for `COc1cccc2c1-c1ccccc1[I+]2`
0.55

====

# System: Staphylococcus aureus
# assay details: Antibacterial activity against vancomycin-intermediate Staphylococcus aureus ATCC 700698 after 18 hrs by broth microdilution method
# Type: functional
# condition details: ATCC 700698, 18 h
test readout: MIC (µM)
Provide the reading as a plain figure in µM.

Query MIC for `c1ccc2c(c1)[I+]c1c-2ccc2ccccc12`
4.2

Query MIC for `Fc1cccc2c1-c1ccccc1[I+]2`
2.2

Query MIC for `N#Cc1ccc2c(c1)[I+]c1ccccc1-2`
8.8

Query MIC for `N#Cc1ccc2c(c1)-c1ccccc1[I+]2`
8.8

Query MIC for `Cc1ccc2c(c1)-c1ccccc1[I+]2`
18

Query MIC for `c1ccc2c(c1)[I+]c1ccccc1-2`
19

Query MIC for `COc1ccc2c(c1)-c1ccccc1[I+]2`
35

Query MIC for `COc1ccc2c(c1)[I+]c1ccccc1-2`
8.7

Query MIC for `Fc1ccc2c(c1)[I+]c1ccccc1-2`
8.9

Query MIC for `Cc1ccc2c(c1)[I+]c1ccccc1-2.O=S(=O)([O-])C(F)(F)F`
9.1

Query MIC for `Fc1ccc2c(c1)-c1ccccc1[I+]2`
18

Query MIC for `Cc1cccc2c1-c1ccccc1[I+]2`
36

Query MIC for `Clc1ccc2c(c1)-c1ccccc1[I+]2`
4.3

Query MIC for `Clc1ccc2c(c1)[I+]c1ccccc1-2`
2.2

Query MIC for `COc1cccc2c1-c1ccccc1[I+]2`
35

Query MIC for `Clc1cccc2c1-c1ccccc1[I+]2`
2.3

====

# assay details: Cytotoxicity against human HepG2 cells after 24 hrs in presence of 10% FBS by resazurin dye based assay
# Type: cell-based
Would you mind telling me the reported CC50 at 24 h of each entry?
Provide the reading as a plain figure in nM.

Query CC50 at 24 h for `Fc1ccc(Cl)c2c1[I+]c1ccccc1-2`
2720

Query CC50 at 24 h for `Clc1ccc(Cl)c2c1[I+]c1ccccc1-2`
1850

Query CC50 at 24 h for `COc1ccc(Cl)c2c1[I+]c1ccccc1-2`
224

Query CC50 at 24 h for `Clc1cccc2c1[I+]c1cccc(Cl)c1-2`
544

====

# assay details: Selectivity index, ratio of CC50 for human HepG2 cells in presence of 1% FBS to MIC for Escherichia coli N4149
# Format: toxicity
# condition details: read-out: Selectivity Index
Just a reminder that ties go to not met: only selectivity ratio strictly below 0.05 counts as met.

selectivity ratio under 0.05? Item: `Clc1ccc2c(c1)-c1ccccc1[I+]2`
not met

selectivity ratio under 0.05? Item: `Cc1ccc2c(c1)-c1ccccc1[I+]2`
not met

selectivity ratio under 0.05? Item: `Clc1ccc2c(c1)[I+]c1ccccc1-2`
not met

selectivity ratio under 0.05? Item: `COc1ccc2c(c1)[I+]c1ccccc1-2`
not met

selectivity ratio under 0.05? Item: `c1ccc2c(c1)[I+]c1c-2ccc2ccccc12`
met

selectivity ratio under 0.05? Item: `Fc1ccc2c(c1)-c1ccccc1[I+]2`
not met

====

Would you mind telling me the reported selectivity ratio of each entry?
# assay details: Selectivity index, ratio of CC50 for human HepG2 cells in presence of 1% FBS to MIC for Acinetobacter baumannii ATCC 19606 col10
# Type: toxicity
# condition details: read-out: Selectivity Index
Just the number.

Query selectivity ratio for `COc1cccc2c1-c1ccccc1[I+]2`
2.2

Query selectivity ratio for `N#Cc1ccc2c(c1)-c1ccccc1[I+]2`
10

Query selectivity ratio for `Fc1ccc2c(c1)[I+]c1ccccc1-2`
2.6

Query selectivity ratio for `COc1ccc2c(c1)-c1ccccc1[I+]2`
2.3

Query selectivity ratio for `c1ccc2c(c1)[I+]c1ccccc1-2`
6.3

Query selectivity ratio for `N#Cc1ccc2c(c1)[I+]c1ccccc1-2`
1.5

Query selectivity ratio for `c1ccc2c(c1)[I+]c1c-2ccc2ccccc12`
0.69

Query selectivity ratio for `Clc1ccc2c(c1)-c1ccccc1[I+]2`
7.5

Query selectivity ratio for `Fc1cccc2c1-c1ccccc1[I+]2`
8.2

Query selectivity ratio for `Cc1ccc2c(c1)[I+]c1ccccc1-2.O=S(=O)([O-])C(F)(F)F`
0.81

Query selectivity ratio for `Cc1cccc2c1-c1ccccc1[I+]2`
1.2

Query selectivity ratio for `Fc1ccc2c(c1)-c1ccccc1[I+]2`
5.3

Query selectivity ratio for `Clc1ccc2c(c1)[I+]c1ccccc1-2`
1

Query selectivity ratio for `COc1ccc2c(c1)[I+]c1ccccc1-2`
3.1

Query selectivity ratio for `Cc1ccc2c(c1)-c1ccccc1[I+]2`
4.2
